- protocol-summary: Volume of distribution at steady state in Wistar rat plasma at 0.4 mg/kg, iv by LC-MS/MS analysis
- Format: ADME, organism-based
- recorded-conditions: read-out: Vdss
assay-readout: Vd (L/kg)
Note: unit L/kg is implicit; provide only the numeric part.

>>> val("c1ccc2oc(-c3csc(C4CCN(Cc5nc6ncccc6[nH]5)CC4)n3)cc2c1")
2.2

Consider the additional molecule presented here.
Q) May I ask what Vd has been recorded for `c1ccc2oc(-c3csc(C4CCN(Cc5nc6cnccc6[nH]5)CC4)n3)cc2c1` ?
A) 3.2

* * *

- target-system: Voltage-gated inwardly rectifying potassium channel KCNH2 (Homo sapiens)
- Sequence (Q12809 whole entry): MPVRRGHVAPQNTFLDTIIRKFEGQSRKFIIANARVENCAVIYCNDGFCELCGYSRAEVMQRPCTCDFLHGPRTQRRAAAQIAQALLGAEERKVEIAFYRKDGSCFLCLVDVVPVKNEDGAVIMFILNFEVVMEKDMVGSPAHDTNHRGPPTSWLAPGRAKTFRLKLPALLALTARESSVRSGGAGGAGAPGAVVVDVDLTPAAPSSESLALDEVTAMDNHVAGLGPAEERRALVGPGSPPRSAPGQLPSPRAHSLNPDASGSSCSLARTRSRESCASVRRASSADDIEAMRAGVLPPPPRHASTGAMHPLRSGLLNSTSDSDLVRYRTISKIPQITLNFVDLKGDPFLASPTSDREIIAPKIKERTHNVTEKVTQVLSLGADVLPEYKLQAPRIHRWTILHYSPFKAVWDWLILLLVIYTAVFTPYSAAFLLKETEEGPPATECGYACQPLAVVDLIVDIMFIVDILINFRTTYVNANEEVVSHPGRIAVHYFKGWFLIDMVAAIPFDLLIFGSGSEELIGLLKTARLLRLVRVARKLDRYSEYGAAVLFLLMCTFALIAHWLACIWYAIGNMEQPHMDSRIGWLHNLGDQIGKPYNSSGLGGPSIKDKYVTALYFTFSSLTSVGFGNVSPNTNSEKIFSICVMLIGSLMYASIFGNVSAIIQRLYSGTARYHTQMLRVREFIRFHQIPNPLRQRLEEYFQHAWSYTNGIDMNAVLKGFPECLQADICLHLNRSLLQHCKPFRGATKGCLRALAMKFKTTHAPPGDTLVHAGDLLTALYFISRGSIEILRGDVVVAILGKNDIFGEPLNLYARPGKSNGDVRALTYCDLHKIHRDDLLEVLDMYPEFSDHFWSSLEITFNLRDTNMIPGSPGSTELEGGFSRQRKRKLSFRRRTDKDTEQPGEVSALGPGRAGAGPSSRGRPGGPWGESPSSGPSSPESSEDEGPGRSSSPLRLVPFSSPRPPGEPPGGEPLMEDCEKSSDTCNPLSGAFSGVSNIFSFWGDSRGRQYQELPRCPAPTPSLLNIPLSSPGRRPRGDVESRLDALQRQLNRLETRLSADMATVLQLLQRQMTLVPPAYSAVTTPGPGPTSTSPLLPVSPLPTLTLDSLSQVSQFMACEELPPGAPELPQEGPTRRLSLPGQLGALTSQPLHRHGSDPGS
- protocol-summary: Inhibition of human ERG by patch-clamp assay
assay-readout: pIC50
Just so you know, pIC50 here is -log10 of the concentration in molar units; reply with that number alone.

Q) Given `c1ccc2oc(-c3csc(C4CCN(Cc5nc6ncccc6[nH]5)CC4)n3)cc2c1` , state its recorded pIC50.
A) 5.52
